- System: Mycobacterium tuberculosis
- measurement description: Cornell - Phenotypic assay to identify agents that inhibit growth of Mycobacterium tuberculosis
- Type: functional
- Design: scale not given: direction of the effect not stated beside the values
- test settings: 10 mM as filed; unlikely as a test dose
In all, about 53,000 compounds went through this assay and about 900 (1.7%) showed an effect of 50% or more. The sample holds strong results, similar compounds and a random draw of the others, so the mix is not that of the screen.
Class (required): determined from Percent Effect; valid ranges are zone 1 (below 10%), zone 2 (10% to below 50%), zone 3 (50% or more)

[
  {
    "molecule": "Cn1nc(CNS(=O)(=O)Cc2ccccc2F)c2c1CCCC2",
    "category label": "zone 2"
  },
  {
    "molecule": "O=C(NCc1ccco1)[C@H]1COC[C@H]2CN(Cc3ccoc3)C[C@H]21.O=C(O)C(F)(F)F",
    "category label": "zone 1"
  },
  {
    "molecule": "CNC(=O)NC(=O)CN(C)C(c1cccnc1)c1ccc(F)cc1F (centres undefined)",
    "category label": "zone 2"
  },
  {
    "molecule": "Cc1cc(NC(=O)N2CCOC(C(N)=O)C2)ccc1Br (centres undefined)",
    "category label": "zone 2"
  },
  {
    "molecule": "COCCC(=O)NCc1ccc(-c2ccccc2C(=O)O)nc1",
    "category label": "zone 2"
  },
  {
    "molecule": "Cn1ccnc1-c1ccc(NC[C@H]2CCc3ccccc3O2)nn1",
    "category label": "zone 2"
  },
  {
    "molecule": "CN1CCC(Nc2ccc(Cl)cc2OCC(F)(F)F)C1=O (centres undefined)",
    "category label": "zone 1"
  },
  {
    "molecule": "CC(C)CNc1cc(-c2c[nH]nc2C2CCN(C(=O)C3CC3)C2)ccn1 (centres undefined)",
    "category label": "zone 2"
  },
  {
    "molecule": "COC(=O)CCCN(C)C(c1cccnc1)c1ccc(F)cc1F (centres undefined)",
    "category label": "zone 3"
  },
  {
    "molecule": "CCc1nc(CN(C)Cc2nnc(-c3cccs3)o2)cs1",
    "category label": "zone 3"
  },
  {
    "molecule": "Cn1ccnc1-c1ccc(NCC2COc3ccccc3O2)nn1 (centres undefined)",
    "category label": "zone 3"
  },
  {
    "molecule": "Cn1ccc(C(=O)N2CCCC(c3cc4cccnc4c(O)n3)C2)n1 (centres undefined)",
    "category label": "zone 1"
  },
  {
    "molecule": "CCC/N=c1/c(NC(=O)NCCCOC)c(O)oc2ccccc12",
    "category label": "zone 1"
  },
  {
    "molecule": "COCC(=O)NCc1ccc(-c2ccccc2C(=O)O)cn1",
    "category label": "zone 3"
  },
  {
    "molecule": "Cn1ccc(C2CCCCCN2C(=O)c2cccnc2)n1 (centres undefined)",
    "category label": "zone 1"
  },
  {
    "molecule": "CCOCCN(C)C(c1cccnc1)c1ccc(F)cc1F (centres undefined)",
    "category label": "zone 2"
  },
  {
    "molecule": "Cn1ccnc1-c1ccc(NCCC2COc3ccccc3O2)nn1 (centres undefined)",
    "category label": "zone 2"
  },
  {
    "molecule": "CC(C)Nc1cc(-c2c[nH]nc2C2CCN(C(=O)C3CCC3)C2)ccn1 (centres undefined)",
    "category label": "zone 3"
  },
  {
    "molecule": "NC(=O)C1CN(C(=O)Nc2cc(Cl)cc(Cl)c2)CCO1 (centres undefined)",
    "category label": "zone 3"
  },
  {
    "molecule": "CS(=O)(=O)N1CCN(C(=O)c2cc(-c3ccco3)cs2)CC1",
    "category label": "zone 2"
  },
  {
    "molecule": "CCc1nc(CN(C)Cc2ncc(-c3cccs3)o2)cs1",
    "category label": "zone 2"
  },
  {
    "molecule": "COCCC(=O)NCc1ccc(-c2ccccc2C(=O)O)cn1",
    "category label": "zone 3"
  },
  {
    "molecule": "O=C1C(Sc2nnnn2C2CC2)CCN1c1ccccc1F (centres undefined)",
    "category label": "zone 1"
  }
]
